SYSTEM: recombinant IRAK-4 kinase (Homo sapiens)
Construct: purchased Millipore, USA
Sequence (Q9NWZ3 1-460): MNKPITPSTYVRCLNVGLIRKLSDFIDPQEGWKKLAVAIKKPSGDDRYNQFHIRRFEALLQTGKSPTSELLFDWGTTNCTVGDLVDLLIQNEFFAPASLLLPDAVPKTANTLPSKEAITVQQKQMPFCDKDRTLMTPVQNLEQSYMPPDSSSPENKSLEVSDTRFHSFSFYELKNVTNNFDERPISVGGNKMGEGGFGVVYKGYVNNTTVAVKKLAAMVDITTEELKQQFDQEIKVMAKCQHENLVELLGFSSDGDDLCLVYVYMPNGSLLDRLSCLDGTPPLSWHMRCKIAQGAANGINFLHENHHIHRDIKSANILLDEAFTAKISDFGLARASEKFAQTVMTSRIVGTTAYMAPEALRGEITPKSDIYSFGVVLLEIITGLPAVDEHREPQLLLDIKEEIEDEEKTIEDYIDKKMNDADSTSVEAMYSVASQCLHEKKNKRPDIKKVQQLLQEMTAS
TEST_SUMMARY: IRAK-4 biochemical assay (TR-FRET)
TEST_SETTINGS: IRAK-4 enzyme, compound at 0.1 μM, 20 μM ATP
Where a name gives a salt, the structure may show the parent alone.
MEASURED_ATTRIBUTE: inhibition at 0.1 µM (%)

Looking up Cc1cc(-c2nc(C(=O)Nc3cc4c(cnn4C)cc3N3CC[C@@H](O)C3)co2)ccn1 [Example 22] , I see its inhibition at 0.1 µM listed as 89

Looking up Cc1cc(-c2nc(C(=O)Nc3cc4c(cnn4C)cc3N3CCC(O)(CO)CC3)co2)ccn1 [Example 40] , I see its inhibition at 0.1 µM listed as 95

Looking up Cc1cc(-c2nc(C(=O)Nc3cc4c(cnn4C)cc3N3CCCC(F)C3)co2)ccn1 (stereo not shown) [Example 16] , I see its inhibition at 0.1 µM listed as 94

Looking up Cc1cc(-c2nc(C(=O)Nc3cc4nn(C)cc4cc3N3CCCC(O)C3)co2)ccn1 (stereo not shown) [Example 13, hydrochloride] , I see its inhibition at 0.1 µM listed as 79
